read-out: CD38, CD38 (gene 952); assay: BSK_SAg_CD38: BioMAP Diversity Plus: SAg Assay for CD38 Biomarker Activity (AID 2283087); conditions: primary human HUVEC with PBMC; actives raise or lower the signal
Activity calls are given as the source filed them. The calls were made as follows: active = hit-call score of the fitted dose curve at least 0.9, where 1 is the maximum; inactive = score below 0.9.
Outcomes: 1.0 for active, 0.0 for inactive

1. CO/N=C(/C1=NOCCO1)c1ccccc1Oc1ncnc(Oc2ccccc2Cl)c1F : 1.0
2. CCSC(=O)N1CCCCCC1 : 0.0
3. COC(=O)NC(=S)Nc1ccccc1NC(=S)NC(=O)OC : 1.0
4. CCOC(=O)C(C)OC(=O)c1cc(Oc2ccc(C(F)(F)F)cc2Cl)ccc1[N+](=O)[O-] (configuration not stated) : 1.0
5. Cc1c(COC(=O)[C@@H]2[C@H](/C=C(\Cl)C(F)(F)F)C2(C)C)cccc1-c1ccccc1 : 0.0
6. O=c1n(Cl)c(=O)n(Cl)c(=O)n1Cl : 0.0
7. CCOc1nc(C(Cl)(Cl)Cl)ns1 : 0.0
8. N#CN=C1SCCN1Cc1ccc(Cl)nc1 : 0.0
9. CC(C)=CC1C(C(=O)OCc2coc(Cc3ccccc3)c2)C1(C)C (configuration not stated) : 0.0
10. CC1(C)C(C(=O)OC(C#N)c2cccc(Oc3ccccc3)c2)C1(C)C (configuration not stated) : 1.0
11. CCCCOCN(C(=O)CCl)c1c(CC)cccc1CC : 1.0
12. CCN(CC)C(=O)C(C)Oc1cccc2ccccc12 (configuration not stated) : 0.0
